system: IGROV1 ovarian; experiment: NCI tumour cell line growth inhibition, 48 h; in the data active means GI50 below about 0.43 µM; inactive means the rest
Classes used: Y (active), N (inactive)

> print(dat)
                                    compound       tested.on  assigned.label
 1  O=C(Nc1nc2ccc(OC(F)(F)F)cc2s1)c1ccc(F)cc1  IGROV1 ovarian               N
 2  CCCCNC(=O)CC1=C(C)/C(=C/c2[nH]c(-c3ccc[nH]3)cc2OC)N=C1C  IGROV1 ovarian               N
 3  Cn1ccc(S(=O)(=O)N2CCC[C@H](Nc3nccc(-c4c(-c5cccc(O)c5)nc5occn45)n3)C2)n1  IGROV1 ovarian               N
 4  O=C(NNC1=NS(=O)(=O)c2ccccc2N1c1ccccc1)c1cnccn1  IGROV1 ovarian               N
 5  CCN1C[C@@H](C)n2c(c(O)c3c(=O)n(Cc4ccc(F)c(Cl)c4)nc(C(=O)NC)c32)C1=O  IGROV1 ovarian               N
 6  Oc1c(Cl)cc(Cl)c(Cl)c1Cc1c(O)c(Cl)cc(Cl)c1Cl  IGROV1 ovarian               N
 7  CC[C@@]1(O)C(=O)OCc2c1cc1n(c2=O)Cc2cc3cc(O)ccc3nc2-1  IGROV1 ovarian               Y
 8  CCOC(=O)C(Cc1ccccc1)n1c(O)c(/C=N/c2ncc(Cc3ccc(Cl)cc3Cl)s2)sc1=S (stereo not drawn)  IGROV1 ovarian               N
 9  CN1CCN(CCCCCOc2cc(O)c3c(=O)cc(-c4ccccc4)oc3c2)CC1  IGROV1 ovarian               N
10  CCN(CC)CCOc1ccc(/C(=C(\C)Cc2ccc(OC)cc2)c2ccc(O)cc2)cc1  IGROV1 ovarian               N
11   Cc1cc2c3c(nc4ccccc42)C(=O)c2cccnc2-c3n1  IGROV1 ovarian               Y
12  O=C(O)C1CC[N-]CC1.O=C(O)C1CC[N-]CC1.[NH2-].[NH2-].[Pt+4]  IGROV1 ovarian               N
13  Cc1ncnc2c1ccn2[C@@H]1C[C@H](Oc2cc(C(F)F)c(F)c3c2CNCC3)[C@@H](O)[C@H]1O  IGROV1 ovarian               N

* * *

system: MDA-MB-435; assay: NCI tumour cell line growth inhibition, 48 h
Reported TGI values are given for each entry in this list.
measure: TGI (µM)

molecule	unit_of_measurement	result_comparator	value
CCCCCCCCCCCCCCCC(=O)OCC1OC(OCCCC)[C@H](O[C@@H]2OC(C)C(OC(=O)CCC)C(O)C2O)C(O)C1O (stereo not given in full)	µM	=	27.3
CC1(C)CCC2(C(=O)O)C(O)CC3(C)C(=CCC4C5(C)CCC(OC6OCC(O)C(O)C6OC6OCC(O)C(O)C6OC6OCC(O)C(OC7OC(CO)C(O)C(O)C7O)C6O)C(C)(C)C5CCC43C)C2C1 (stereo not given)	µM	=	93
Cc1ccc(S(=O)(=O)NCCCSCCN)cc1	µM	>	100
CCc1cccc(C(C)C)c1NC(=O)C(=O)Nn1c(=S)[nH]c2ccccc2c1=O	µM	>	100
N=C1C(c2nc3ccccc3c(=O)[nH]2)=C(O)CN1c1cccc(Cl)c1	µM	=	3.8
O=S(=O)(Cc1ccccc1)c1nnc(S(=O)(=O)c2ccc(Cl)cc2)s1	µM	=	90.6
O=C1NC(=Nc2ccccc2Cl)N/C1=C\c1c(Cl)cccc1Cl	µM	>	100
CC(=O)O[C@H]1[C@@H](OC2CCCC2(c2ccccc2)c2ccccc2)O[N+]([O-])=C[C@@H]1c1ccccc1 (stereo not given in full)	µM	=	11.3
CN1CC=C(C#CC(C)(C)O)CC1	µM	>	37.5
COc1ccc(/C(=N/Nc2nc3ccccc3n2Cc2ccccc2)C(=O)O)cc1	µM	>	100
O=C(Nc1nc2ccc(OC(F)(F)F)cc2s1)c1ccc(F)cc1	µM	>	100
O=C(Cc1csc2[n+]1C(=O)/C(=C/c1ccc(Cl)cc1)S2)Nc1ccccc1	µM	=	95
O=C(Oc1ccc(C(c2c(O)c3ccccc3oc2=O)c2c(O)c3ccccc3oc2=O)cc1)c1ccc(C(=O)c2ccccc2)cc1	µM	=	42.3
CCNCCS(=O)(=O)NC[C@@]1(c2ccccc2)SC(NC(=O)C(C)(C)C)=NN1C(=O)C(C)(C)C	µM	<	0.01
Cc1cc(N(C)c2ccccc2)nc(N(C)c2ccccc2)n1	µM	>	100
COc1cc2c(SCCN(C)C)nc3ccccc3c2c2ccccc12	µM	=	3.3
N#Cc1c(-c2ccccc2)nc(SCC(O)CN2CCOCC2)nc1N1CCOCC1 (stereo not given)	µM	>	100
CC(/C=C/c1ccccc1)=N\NC(=S)N/N=C(C)/C=C/c1ccccc1	µM	>	100
C=C(CC)C(=O)c1ccc(OCC(=O)O)c(Cl)c1Cl	µM	=	32.3
CN(C)Cc1ccc(O)c(CN(C)C)n1	µM	>	100
